The measurements presented in this section are drawn from PubChem BioAssay (EPA / NIEHS).

# testSystem: Cellular tumor antigen p53 (Homo sapiens)
# testDetails: TOX21_p53_BLA_p3_ratio: Tox21 HCT-116 p53 Agonism Beta-lactamase Assay, Ratio, Phase 3 (AID 2283596)
Records with an inconclusive call do not appear. Activity calls are given as the source filed them. Rule for the calls: active = hit-call score of the fitted dose curve at least 0.9, where 1 is the maximum; inconclusive = response in the unintended direction; inactive = score below 0.9.
The reply should name one outcome from Y (active), N (inactive)

Q. Record lookup: outcome of this test for Oc1cccc[c]1[Hg][Cl] ?
A. Y

Q. # lookup: test call for CN[C@@]1(c2ccccc2Cl)CCCCC1=O
A. N

Q. Which result was noted for this molecule in the test: CCCC(Cn1cncn1)c1ccc(Cl)cc1Cl (configuration not stated)
A. Y

Q. Outcome? Clc1ccc(-c2ccc(Cl)c(Cl)c2Cl)c(Cl)c1Cl
A. N

Q. Hi, sorry to bother you, what did the test record for CCCCN(N=O)C(=N)N[N+](=O)[O-] ?
A. Y

Q. Query: recorded result category for NC(=S)C(N)=S in this test
A. N

Q. I'd appreciate the recorded outcome for CCCN from this test.
A. N

Q. Please state the recorded outcome for this molecule: CCNc1nc(NC(C)C)nc(OC)n1
A. N

Q. Each molecule tested received a call. Report the one for CCC/C=C/C=C/C(=O)O[C@H]1/C(=C/C(=O)OC)C[C@H]2C[C@H]([C@@H](C)O)OC(=O)C[C@H](O)C[C@@H]3C[C@H](OC(C)=O)C(C)(C)[C@](O)(C[C@@H]4C/C(=C/C(=O)OC)C[C@H](/C=C/C(C)(C)[C@]1(O)O2)O4)O3 .
A. N

Q. What did the test return for C(COCC1CO1)OCC1CO1 (configuration not stated) ?
A. N

Q. // outcome(item) with item = Nc1cc(Cl)cc(Cl)c1
A. N

Q. Please let me know the test result on file for C(CCOCC1CO1)COCC1CO1 (configuration not stated) .
A. Y
